- method: Prophylactic study: hematological parameters
- Format: in vivo, Wistar strain albino rats
- condition label: HFD+normal diet, day 30
measurement name: Eosinophil (%)
Output spec: scalar in %, unitless text.

Using the record for CC(C)c1c(C(=O)Nc2ccccc2)c(-c2ccccc2)c(-c2ccc(F)cc2)n1CC[C@@H](O)C[C@@H](O)CC(=O)O , state its measured Eosinophil.
1.15

* * *

- method: Therapeutic study: hematological parameters
- Assay type: in vivo, Wistar strain albino rats
- condition label: HFD discontinued, day 0
measurement name: Platelet count

Specify Platelet count for CC(C)c1c(C(=O)Nc2ccccc2)c(-c2ccccc2)c(-c2ccc(F)cc2)n1CC[C@@H](O)C[C@@H](O)CC(=O)O [Statin, Atorvastatin] and stop.
1080 10³/µL

* * *

- method: Therapeutic study: hematological parameters
- Type: in vivo, Wistar strain albino rats
- condition label: HFD continued, day 60
measurement name: Platelet count

Report measured Platelet count; entry is CC(C)c1c(C(=O)Nc2ccccc2)c(-c2ccccc2)c(-c2ccc(F)cc2)n1CC[C@@H](O)C[C@@H](O)CC(=O)O
1070 10³/µL

* * *

- method: Prophylactic study: hematological parameters
- Type: in vivo, Wistar strain albino rats
- condition label: HFD+normal diet, day 75
measurement name: Eosinophil (%)
Write down the numeric answer in % and omit the unit.

Supply recorded Eosinophil for CC(C)c1c(C(=O)Nc2ccccc2)c(-c2ccccc2)c(-c2ccc(F)cc2)n1CC[C@@H](O)C[C@@H](O)CC(=O)O [Statin, Atorvastatin] here.
1.22

* * *

- method: Prophylactic study: hematological parameters
- Type: in vivo, Wistar strain albino rats
- condition label: HFD+normal diet, day 45
measurement name: Eosinophil
Give the value; after it, write the unit.

Find the measured Eosinophil of CC(C)c1c(C(=O)Nc2ccccc2)c(-c2ccccc2)c(-c2ccc(F)cc2)n1CC[C@@H](O)C[C@@H](O)CC(=O)O and report it.
1.15%

* * *

- method: Therapeutic study: hematological parameters
- Type: in vivo, Wistar strain albino rats
- condition label: HFD discontinued, day 0
- Protocol: Wistar strain albino rats of body weight ranging from 190-225 g were selected for the present study. The temperature and humidity were kept at optimum (22+2° C.; 40-70% and animals were exposed to natural chronological day night cycles. The experiments were carried out in conformity with the Institutional Animal Ethics Committee. The 6 groups were as follows: • 1. Normal Control • 2. 1.5-2 ml blood sample was taken from retino-orbital chamber in vials for biochemical estimations at every 15 days. […]
measurement name: Monocyte

Give the measured Monocyte for CC(C)c1c(C(=O)Nc2ccccc2)c(-c2ccccc2)c(-c2ccc(F)cc2)n1CC[C@@H](O)C[C@@H](O)CC(=O)O
1.35%

* * *

- method: Therapeutic study: hematological parameters
- Format: in vivo, Wistar strain albino rats
- condition label: HFD discontinued, day 15
measurement name: Monocyte (%)
Please give a number only; it is taken to be in %.

Specify reported Monocyte for the compound shown: CC(C)c1c(C(=O)Nc2ccccc2)c(-c2ccccc2)c(-c2ccc(F)cc2)n1CC[C@@H](O)C[C@@H](O)CC(=O)O [Statin, Atorvastatin]
1.35

* * *

- method: Prophylactic study: hematological parameters
- Type: in vivo, Wistar strain albino rats
- condition label: HFD+normal diet, day 0
- Description: Wistar strain albino rats of body weight ranging from 190-225 g were selected for the present study. The temperature and humidity were kept at optimum (22+2° C.; 40-70% and animals were exposed to natural chronological day night cycles. The experiments were carried out in conformity with the Institutional Animal Ethics Committee. The 6 groups were as follows: • 1. Normal Control • 2. 1.5-2 ml blood sample was taken from retino-orbital chamber in vials for biochemical estimations at every 15 days. […]
measurement name: Monocyte (%)
Write the value in % as a bare number.

Please report Monocyte for the following compound: CC(C)c1c(C(=O)Nc2ccccc2)c(-c2ccccc2)c(-c2ccc(F)cc2)n1CC[C@@H](O)C[C@@H](O)CC(=O)O [Statin, Atorvastatin]
1.4
